- Tested on: SCA2.1 (DNA, aptamer) CTTACGACCTTAAGTGGGGTTCGGGTGGAGTTTATGGGGTCGTAAG
- runDescription: Cy7 displacement, absorbance A670/A775
- protocolConditions: Cy7 (2 µM) displaced from 3 µM SCA2.1; 50 µM compound
assayMetric: binding

Prompt line: Using SCA2.1 (DNA, aptamer) CTTACGACCTTAAGTGGGGTTCGGGTGGAGTTTATGGGGTCGTAAG as the test system, report measured binding of CNC(C)C(=O)c1ccc(F)cc1 (centres unmarked) .
Response line: yes

Prompt line: Using SCA2.1 (DNA, aptamer) CTTACGACCTTAAGTGGGGTTCGGGTGGAGTTTATGGGGTCGTAAG as the test system, report measured binding of CNC(C)C(=O)c1ccccc1 (centres unmarked) .
Response line: yes

Prompt line: Using SCA2.1 (DNA, aptamer) CTTACGACCTTAAGTGGGGTTCGGGTGGAGTTTATGGGGTCGTAAG as the test system, report measured binding of CCCC(NC)C(=O)c1ccc2c(c1)OCO2 (centres unmarked) .
Response line: yes

Prompt line: Using SCA2.1 (DNA, aptamer) CTTACGACCTTAAGTGGGGTTCGGGTGGAGTTTATGGGGTCGTAAG as the test system, report measured binding of `C[C@H](N)C(=O)c1ccccc1` .
Response line: yes

Prompt line: Using SCA2.1 (DNA, aptamer) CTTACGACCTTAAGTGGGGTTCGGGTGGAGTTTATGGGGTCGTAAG as the test system, report measured binding of CNC(C)C(=O)c1cccc(F)c1 (centres unmarked) .
Response line: yes

Others:
Prompt line: Using SCA2.1 (DNA, aptamer) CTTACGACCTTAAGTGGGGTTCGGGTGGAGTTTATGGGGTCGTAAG as the test system, report measured binding of CNC(C)C(=O)c1ccc(C)cc1 (centres unmarked) .
Response line: yes

Prompt line: Using SCA2.1 (DNA, aptamer) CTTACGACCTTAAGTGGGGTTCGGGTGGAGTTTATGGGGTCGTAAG as the test system, report measured binding of CNC(C)C(=O)c1ccc2c(c1)OCO2 (centres unmarked) .
Response line: yes

Prompt line: Using SCA2.1 (DNA, aptamer) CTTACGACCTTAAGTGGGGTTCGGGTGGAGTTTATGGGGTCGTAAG as the test system, report measured binding of CCCC(C(=O)c1ccc2ccccc2c1)N1CCCC1 (centres unmarked) .
Response line: yes
